The reported numbers originate from patent US10105357B2.

# Test system: A375 (Amelanotic Melanoma)
# PROTOCOL SUMMARY: Cell viability analysis, skin cancer A375
# Type: cell-based, human
# CONDITION NOTES: Homo sapiens, A-375, 72 h, read-out: cell viability (survival rate), A375, drug 10 μM, 72 hours, WST-1, OD450 nm
Structures can show the parent of a compound that is named as a salt.
I'd appreciate it if you could label each record using viability at 10 µM and these ranges: c1 = under 50%, c2 = from 50% up to 80%, c3 = 80% and over

Ask: Band assignment needed for CN1[C@@H]2CC[C@H]1C[C@@H](OC(c1ccccc1)c1ccccc1)C2 [Benztropine mesylate] please.
Result: c2

----------
In this section we review reported viability at 10 µM values for a set of compounds.
# Test system: NIH: OVCAR-3
# PROTOCOL SUMMARY: Cell viability analysis, ovarian cancer NIH: OVCAR-3
# Assay type: cell-based, human
# CONDITION NOTES: Homo sapiens, 72 h; NIH-OVCAR-3; repeated experiment; read-out: The results of antibiotic drug inhibiting cancer cell lines (cell viability analysis), NIH-OVCAR-3
Where a name gives a salt, the structure may show the parent alone.
The reply should be a number in %, with the unit left off.

Solved cases below.
[
  {
    "COMPOUND": "COC(=O)Nc1nc2ccc([S+]([O-])c3ccccc3)cc2[nH]1 (stereo not drawn)",
    "UNIT OF MEASURE": "%",
    "RECORDED MEASUREMENT": 62.2
  },
  {
    "COMPOUND": "CN(C)CCC=C1c2ccccc2CCc2ccccc21 [Amitriptyline HCl]",
    "UNIT OF MEASURE": "%",
    "RECORDED MEASUREMENT": 104
  },
  {
    "COMPOUND": "CC[C@@H]([C@H](C)O)n1ncn(-c2ccc(N3CCN(c4ccc(OC[C@@H]5CO[C@@](Cn6cncn6)(c6ccc(F)cc6F)C5)cc4)CC3)cc2)c1=O",
    "UNIT OF MEASURE": "%",
    "RECORDED MEASUREMENT": 62.3
  },
  {
    "COMPOUND": "CC(C)c1nc(N(C)S(C)(=O)=O)nc(-c2ccc(F)cc2)c1/C=C/[C@@H](O)C[C@@H](O)CC(=O)O",
    "UNIT OF MEASURE": "%",
    "RECORDED MEASUREMENT": 102
  },
  {
    "COMPOUND": "CC(C)/N=c1\\cc2n(-c3ccc(Cl)cc3)c3ccccc3nc-2cc1Nc1ccc(Cl)cc1",
    "UNIT OF MEASURE": "%",
    "RECORDED MEASUREMENT": 97.3
  }
]

Continue with the next compound.
Ask: Please tell me: viability at 10 µM of COc1c(C)c2c(c(O)c1C/C=C(\C)CCC(=O)O)C(=O)OC2 [Mycophenolic (Mycophenolate), Mycophenolic] , system NIH: OVCAR-3?
Result: 59

----------
# Tested on: AGS (Gastric Adenocarcinoma)
# PROTOCOL SUMMARY: Cell viability analysis, gastric cancer AGS
# Type: cell-based, human
MEASURED ENDPOINT: The results of antibiotic drug inhibiting cancer cell lines (cell viability analysis), AGS

[
  {
    "COMPOUND": "Cc1cc(C2CCCCC2)n(O)c(=O)c1.NCCO",
    "RECORDED MEASUREMENT": 36.59
  },
  {
    "COMPOUND": "Cl.c1ccc([C@H]2CN3CCSC3=N2)cc1 [Levamisole Hydrochloride (Ergamisol)]",
    "RECORDED MEASUREMENT": 120.5
  },
  {
    "COMPOUND": "Cc1cc(C#N)cc(C)c1Oc1nc(Nc2ccc(C#N)cc2)nc(N)c1Br",
    "RECORDED MEASUREMENT": 49.66
  }
]

Consider the additional compound presented here.
Ask: Query the reported The results of antibiotic drug inhibiting cancer cell lines (cell viability analysis), AGS for AGS (Gastric Adenocarcinoma); item: CC1(C)[C@@H](O[C@H]2O[C@H](C(=O)O)[C@@H](O)[C@H](O)[C@H]2O[C@@H]2O[C@H](C(=O)O)[C@@H](O)[C@H](O)[C@H]2O)CC[C@]2(C)[C@H]3C(=O)C=C4[C@@H]5C[C@@](C)(C(=O)O)CC[C@]5(C)CC[C@@]4(C)[C@]3(C)CC[C@@H]12 [Ammonium Glycyrrhizinate (AMGZ), Ammonium Glycyrrhizinate]
Result: 109.2
